- Target or test system: KRAS WT (Homo sapiens (Human), UniProt P01116+P62937)
- Sequence (P01116-2 other isoform, or with tags, fused parts or gaps): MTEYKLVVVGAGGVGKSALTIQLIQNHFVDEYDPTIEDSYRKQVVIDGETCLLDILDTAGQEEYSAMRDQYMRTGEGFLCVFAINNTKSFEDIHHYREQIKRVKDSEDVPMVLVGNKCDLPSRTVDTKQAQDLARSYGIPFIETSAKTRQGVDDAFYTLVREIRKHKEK
- Sequence (P62937 whole entry): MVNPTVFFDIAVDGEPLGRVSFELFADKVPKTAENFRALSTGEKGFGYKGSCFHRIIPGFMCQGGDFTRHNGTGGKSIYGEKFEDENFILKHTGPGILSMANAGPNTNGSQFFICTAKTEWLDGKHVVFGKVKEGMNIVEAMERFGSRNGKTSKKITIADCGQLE
- Protocol description: Ras-Raf (BRAF RBD) disruption / FRET / MOA assay, KRAS WT
- Assay type: biochemical
- Cond: read-out: IC50* KRAS WT FRET data
pIC50: −log10 of the molar value.
Entries and their pIC50 values follow.

{"Compound": "CCn1c(-c2cccnc2[C@H](C)OC)c2c3cc(ccc31)-c1csc(n1)C[C@H](NC(=O)C[C@H](C)OC1CN(C(=O)C#CC(C)(C)N(C)C)C1)C(=O)N1CCC[C@H](N1)C(=O)OCC(C)(C)C2 (atropisomer, axis not shown)", "Readout": "pIC50", "Observed": "5.00 to 6.00"}
{"Compound": "CO[C@@H](C)c1ncccc1-c1c2c3cc(ccc3n1CC(F)(F)F)-c1cc(CF)cc(c1)C[C@H](NC(=O)[C@@H](COC1CN(C(=O)C#CC(C)(C)N(C)C)C1)C(C)C)C(=O)N1CCC[C@H](N1)C(=O)OCC(C)(C)C2 (atropisomer, axis not shown)", "Readout": "pIC50", "Observed": "5.00 to 6.00"}
{"Compound": "C=CC(=O)N1CC[C@H](C(=O)N(C)[C@@H](C(=O)N[C@H]2Cc3cc(O)cc(c3)-c3ccc4c(c3)c(c(-c3cccc(CN(C)C)c3)n4CC)CC(C)(C)COC(=O)[C@@H]3CCCN(N3)C2=O)C(C)C)C1", "Readout": "pIC50", "Observed": "< 5.00"}
{"Compound": "C=CC(=O)Nc1csc(C(=O)N(C)[C@H](C(=O)N[C@H]2Cc3cc(O)cc(c3)-c3ccc4c(c3)c(c(-c3cccnc3[C@H](C)OC)n4CC)CC(C)(C)COC(=O)[C@@H]3CCCN(N3)C2=O)C(C)C)n1 (atropisomer, axis not shown)", "Readout": "pIC50", "Observed": "6.00 to 7.00"}
{"Compound": "C=CC(=O)N1CCN(C(=O)N(C)[C@H](C(=O)N[C@H]2Cc3nc(cs3)-c3ccc4c(c3)c(c(-c3cccnc3[C@H](C)OC)n4CC)CC(C)(C)COC(=O)[C@@H]3CCCN(N3)C2=O)C(C)C)[C@@H](C)C1 (atropisomer, axis not shown)", "Readout": "pIC50", "Observed": "6.00 to 7.00"}
{"Compound": "CC#CC(=O)N1CC[C@@]2(CCN([C@H](C(=O)N[C@H]3Cc4nc(cs4)-c4ccc5c(c4)c(c(-c4cccnc4[C@H](C)OC)n5CC)CC(C)(C)COC(=O)[C@@H]4CCCN(N4)C3=O)C(C)C)C2=O)C1 (atropisomer, axis not shown)", "Readout": "pIC50", "Observed": "< 5.00"}
{"Compound": "CCn1c(-c2cccnc2[C@H](C)OC)c2c3cc(ccc31)-c1cccc(c1)C[C@H](NC(=O)[C@H](C(C)C)N(C)C(=O)[C@H]1CCN(C(=O)C#CC(C)(C)N3CCC(F)(F)C3)C1)C(=O)N1CCC[C@H](N1)C(=O)OCC(C)(C)C2 (atropisomer, axis not shown)", "Readout": "pIC50", "Observed": "< 5.00"}

Turning now to a further record.
Entry C=CC(=O)N(C)CCC1CCN(C(=O)N(C)[C@H](C(=O)N[C@H]2Cc3nc(cs3)-c3ccc4c(c3)c(c(-c3cccnc3[C@H](C)OC)n4CC)CC(C)(C)COC(=O)[C@@H]3CCCN(N3)C2=O)C(C)C)CC1 (atropisomer, axis not shown) ; pIC50 = 7.00 to 8.00
